The following compounds are listed with their measured Effect values.
Molecular target: Estrogen receptor (Mus musculus) (UniProt O08537+P19785)
Sequence (O08537 whole entry, looked up): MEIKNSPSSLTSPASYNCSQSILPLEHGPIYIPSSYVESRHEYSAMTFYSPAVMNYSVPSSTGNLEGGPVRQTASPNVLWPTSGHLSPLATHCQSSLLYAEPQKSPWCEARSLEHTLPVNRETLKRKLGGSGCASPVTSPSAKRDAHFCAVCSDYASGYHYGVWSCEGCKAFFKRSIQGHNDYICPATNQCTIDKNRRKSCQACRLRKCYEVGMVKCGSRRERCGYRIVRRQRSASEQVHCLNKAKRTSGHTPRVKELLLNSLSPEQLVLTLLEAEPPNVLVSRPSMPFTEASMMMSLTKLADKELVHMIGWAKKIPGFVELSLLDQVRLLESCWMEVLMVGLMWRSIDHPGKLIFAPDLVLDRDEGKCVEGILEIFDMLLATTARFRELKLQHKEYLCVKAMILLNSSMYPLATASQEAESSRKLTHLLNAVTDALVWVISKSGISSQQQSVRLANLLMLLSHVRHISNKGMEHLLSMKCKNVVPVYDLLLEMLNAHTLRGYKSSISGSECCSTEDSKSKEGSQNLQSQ
Sequence (P19785 whole entry, looked up): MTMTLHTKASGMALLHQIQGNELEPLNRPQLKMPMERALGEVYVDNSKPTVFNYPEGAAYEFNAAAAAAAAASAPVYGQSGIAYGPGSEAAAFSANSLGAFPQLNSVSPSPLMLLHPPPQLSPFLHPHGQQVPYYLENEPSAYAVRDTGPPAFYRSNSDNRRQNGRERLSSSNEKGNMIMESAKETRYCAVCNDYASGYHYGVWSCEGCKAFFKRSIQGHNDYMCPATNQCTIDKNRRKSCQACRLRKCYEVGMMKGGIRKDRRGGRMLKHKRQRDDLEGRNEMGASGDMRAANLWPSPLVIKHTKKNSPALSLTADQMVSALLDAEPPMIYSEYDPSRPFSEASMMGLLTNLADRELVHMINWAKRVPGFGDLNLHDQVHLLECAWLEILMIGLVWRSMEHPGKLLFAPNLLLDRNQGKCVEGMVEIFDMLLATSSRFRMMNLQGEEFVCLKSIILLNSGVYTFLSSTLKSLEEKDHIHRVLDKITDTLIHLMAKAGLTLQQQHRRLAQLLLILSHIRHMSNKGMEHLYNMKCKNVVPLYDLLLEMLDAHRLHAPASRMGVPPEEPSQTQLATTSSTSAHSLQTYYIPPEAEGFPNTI
Assay: Uterotrophic effect in mice at 0 ug dose
Format: functional, tissue-based
Design: unit not given here
Settings: Uterus
No unit in the answer, please; the number alone is enough.

Worked cases, answers included:
{"smiles_str": "Oc1cccc([C@H]([C@H](c2cccc(O)c2)C(F)(F)F)C(F)(F)F)c1", "experimental_target": "Estrogen receptor (Mus musculus) (UniProt O08537+P19785)", "recorded_measurement": 13.3}
{"smiles_str": "C/C(=C(/C)c1ccc(O)cc1)c1ccc(O)cc1", "experimental_target": "Estrogen receptor (Mus musculus) (UniProt O08537+P19785)", "recorded_measurement": 14.8}
{"smiles_str": "Oc1cccc(/C(=C(/c2cccc(O)c2)C(F)(F)F)C(F)(F)F)c1", "experimental_target": "Estrogen receptor (Mus musculus) (UniProt O08537+P19785)", "recorded_measurement": 14.8}
{"smiles_str": "C[C@H](c1ccc(O)cc1)[C@@H](C)c1ccc(O)cc1", "experimental_target": "Estrogen receptor (Mus musculus) (UniProt O08537+P19785)", "recorded_measurement": 14.8}

Turning now to a further record.
Qu. # lookup: Effect of C/C(=C(/C)c1cccc(O)c1)c1cccc(O)c1
Ans. 12.9
